# Tested on: Pfeiffer cells
# EXPERIMENT: Cell proliferation test (cell counting kit-8, 6 days)
# Assay type: cell-based
# MEASUREMENT_SETUP: Homo sapiens, Pfeiffer, 144 h, 6 days' growth
pIC50: −log10 of the molar value.

COMPOUND	pIC50
CCN(c1c(F)c(-c2ccc(N3CCN(C)CC3)nc2)cc2c(NCc3c(C)cc(C)[nH]c3=O)nccc12)C1CCOCC1	6.22
CCN(c1cc(-c2ccc(CN3CCOCC3)nc2)cc2c(NCc3c(C)cc(C)[nH]c3=O)nccc12)C1CCOCC1	6.15
CCN(c1cc(-c2ccc(CN3CCCCC3)cc2)cc2c(NCc3c(C)cc(C)[nH]c3=O)nccc12)C1CCC(N(C)C)CC1 (stereo not drawn)	6.00
CCN(c1c(F)c(-c2ccc(N3CCN(C)CC3)nc2)cc2c(NCc3c(C)cc(C)nc3O)nccc12)[C@H]1CC[C@H](N(C)C)CC1	6.73
CCN(c1cc(-c2ccc(CN3CCN(C)CC3)nc2)cc2c(NCc3c(C)cc(C)[nH]c3=O)nccc12)C1CCOCC1	6.01
CCN(c1cc(-c2ccc(N3CCN(C)CC3)nc2)cc2c(NCc3c(C)cc(C)[nH]c3=O)nccc12)C1CCNC(C)C1 (stereo not drawn)	6.19

====

# key: entry, value: pIC50
# TESTED_ON: Recombinant PRC2 (EZH2-Y641F) (Homo sapiens, UniProt Q15910, Y641F)
# Sequence (Q15910 whole entry Y641F): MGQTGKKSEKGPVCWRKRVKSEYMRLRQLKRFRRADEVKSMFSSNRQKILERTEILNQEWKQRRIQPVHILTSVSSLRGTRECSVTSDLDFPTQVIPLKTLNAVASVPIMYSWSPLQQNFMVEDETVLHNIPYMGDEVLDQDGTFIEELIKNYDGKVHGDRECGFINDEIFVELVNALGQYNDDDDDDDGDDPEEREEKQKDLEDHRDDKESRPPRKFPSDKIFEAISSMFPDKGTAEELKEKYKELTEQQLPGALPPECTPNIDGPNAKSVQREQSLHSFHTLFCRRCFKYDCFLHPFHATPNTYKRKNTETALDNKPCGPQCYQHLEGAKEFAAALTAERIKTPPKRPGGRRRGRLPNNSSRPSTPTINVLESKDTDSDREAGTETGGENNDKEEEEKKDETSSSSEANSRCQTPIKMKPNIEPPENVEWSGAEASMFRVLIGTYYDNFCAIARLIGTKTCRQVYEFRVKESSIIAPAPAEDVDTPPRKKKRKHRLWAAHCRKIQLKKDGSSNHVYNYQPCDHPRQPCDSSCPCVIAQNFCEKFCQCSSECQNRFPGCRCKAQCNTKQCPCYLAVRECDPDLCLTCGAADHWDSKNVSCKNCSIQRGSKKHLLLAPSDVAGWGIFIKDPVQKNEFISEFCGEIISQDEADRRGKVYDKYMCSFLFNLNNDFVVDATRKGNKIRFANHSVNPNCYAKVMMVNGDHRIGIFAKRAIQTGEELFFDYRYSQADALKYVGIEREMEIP
# Sequence (O75530 whole entry partner): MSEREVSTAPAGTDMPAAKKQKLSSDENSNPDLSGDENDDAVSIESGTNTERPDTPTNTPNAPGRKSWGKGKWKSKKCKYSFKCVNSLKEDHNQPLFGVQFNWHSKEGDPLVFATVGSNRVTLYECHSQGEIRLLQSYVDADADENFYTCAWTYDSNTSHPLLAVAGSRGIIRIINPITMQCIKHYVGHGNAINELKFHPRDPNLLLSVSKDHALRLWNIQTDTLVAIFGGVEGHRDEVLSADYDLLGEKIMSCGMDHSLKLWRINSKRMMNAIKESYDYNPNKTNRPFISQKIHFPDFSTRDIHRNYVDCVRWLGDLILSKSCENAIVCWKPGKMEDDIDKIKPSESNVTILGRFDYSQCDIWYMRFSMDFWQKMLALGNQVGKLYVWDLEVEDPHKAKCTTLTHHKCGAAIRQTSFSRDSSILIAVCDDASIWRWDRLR
# Sequence (Q15022 whole entry partner): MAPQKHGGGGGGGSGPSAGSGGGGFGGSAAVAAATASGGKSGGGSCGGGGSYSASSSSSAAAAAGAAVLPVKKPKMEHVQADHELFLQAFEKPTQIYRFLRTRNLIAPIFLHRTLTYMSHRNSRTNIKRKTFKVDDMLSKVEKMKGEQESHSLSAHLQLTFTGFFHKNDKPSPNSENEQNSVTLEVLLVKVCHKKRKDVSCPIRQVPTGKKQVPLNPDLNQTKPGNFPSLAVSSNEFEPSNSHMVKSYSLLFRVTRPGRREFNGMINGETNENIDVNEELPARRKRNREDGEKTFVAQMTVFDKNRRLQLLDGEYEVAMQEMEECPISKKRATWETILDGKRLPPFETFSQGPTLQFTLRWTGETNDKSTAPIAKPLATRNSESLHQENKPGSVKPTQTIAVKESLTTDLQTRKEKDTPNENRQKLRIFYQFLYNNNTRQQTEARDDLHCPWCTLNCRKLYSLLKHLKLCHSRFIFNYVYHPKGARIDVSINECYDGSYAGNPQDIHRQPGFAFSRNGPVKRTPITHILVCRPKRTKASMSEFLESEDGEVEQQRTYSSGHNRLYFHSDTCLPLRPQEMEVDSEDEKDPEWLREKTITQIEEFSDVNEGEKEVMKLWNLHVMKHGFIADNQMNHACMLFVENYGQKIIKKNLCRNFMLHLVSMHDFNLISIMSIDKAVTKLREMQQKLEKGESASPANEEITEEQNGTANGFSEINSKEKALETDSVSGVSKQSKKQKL
# Sequence (Q09028 whole entry partner): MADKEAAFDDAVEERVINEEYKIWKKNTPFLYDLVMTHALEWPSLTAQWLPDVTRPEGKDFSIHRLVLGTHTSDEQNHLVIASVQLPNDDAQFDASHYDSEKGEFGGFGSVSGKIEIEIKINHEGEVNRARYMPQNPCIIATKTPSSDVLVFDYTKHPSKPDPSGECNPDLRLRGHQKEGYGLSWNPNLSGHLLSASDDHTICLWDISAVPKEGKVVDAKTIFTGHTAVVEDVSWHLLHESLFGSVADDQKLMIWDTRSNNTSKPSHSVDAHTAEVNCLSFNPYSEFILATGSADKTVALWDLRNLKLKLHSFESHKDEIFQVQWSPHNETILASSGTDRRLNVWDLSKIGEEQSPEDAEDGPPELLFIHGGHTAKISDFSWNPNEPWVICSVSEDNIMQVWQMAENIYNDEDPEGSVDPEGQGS
# Sequence (Q6ZN18 whole entry partner): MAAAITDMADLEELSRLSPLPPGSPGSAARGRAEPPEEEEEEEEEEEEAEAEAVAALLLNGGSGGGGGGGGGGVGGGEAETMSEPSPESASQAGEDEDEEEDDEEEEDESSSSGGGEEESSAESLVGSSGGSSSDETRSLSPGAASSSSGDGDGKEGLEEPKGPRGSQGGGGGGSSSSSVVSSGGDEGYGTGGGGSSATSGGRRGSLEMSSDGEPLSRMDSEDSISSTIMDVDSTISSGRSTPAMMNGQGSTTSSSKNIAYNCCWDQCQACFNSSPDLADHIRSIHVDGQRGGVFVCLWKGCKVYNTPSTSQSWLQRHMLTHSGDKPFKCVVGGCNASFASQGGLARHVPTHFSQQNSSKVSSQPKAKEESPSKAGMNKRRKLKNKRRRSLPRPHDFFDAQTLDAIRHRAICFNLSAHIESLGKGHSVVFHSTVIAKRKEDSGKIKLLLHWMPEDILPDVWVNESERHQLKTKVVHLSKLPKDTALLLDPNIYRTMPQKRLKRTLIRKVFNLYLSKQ
# EXPERIMENT: In vitro methyltransferase activity test (LANCE Ultra);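 further: compounds tested as an 8-point threefold dilution series, fluorescence read after 1 h detection step at room temperature, IC50 derived from a four-parameter curve fit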
# MEASUREMENT_SETUP: EZH2 Y641F IC50, Recombinant PRC2 (EZH2-Y641F), LANCE Ultra detection, 3 hours reaction
pIC50: −log10 of the molar value.

COMPOUND	pIC50
CCN(c1cc(-c2cnc(N3CCOCC3)nc2)cc2c(NCc3c(OC)cc(C)[nH]c3=O)nccc12)C1CCC(N(C)C)CC1 (stereo not shown)	7.38
CCN(c1cc(C(=O)Nc2cccnc2)cc2c(NCc3c(C)cc(C)[nH]c3=O)nccc12)C1CCOCC1	6.60
CCN(c1cc(-c2ccc(N3CCN(C)CC3)nc2)cc2c(NCc3c(OC)cc(C)[nH]c3=O)nccc12)C1CCC(N(C)C)CC1 (stereo not shown)	7.68
CCN(c1cc(-c2ccc(NC3CCN(C)CC3)cc2)cc2c(NCc3c(C)cc(C)[nH]c3=O)nccc12)C1CCOCC1	6.44

====

# key: entry, value: pIC50
# Test system: Pfeiffer cells
# EXPERIMENT: Cell proliferation test (cell counting kit-8, 6 days)
# Assay type: cell-based
# MEASUREMENT_SETUP: Homo sapiens, Pfeiffer, 144 h, 6 days' growth
pIC50: −log10 of the molar value.

MOLECULE	pIC50
CCN(c1cc(C2=CCN(C)CC2)cc2c(NCc3c(C)cc(C)[nH]c3=O)nccc12)C1CCC(O)CC1 (stereo not shown)	6.54
CCN(c1cc(Cl)cc2c(NCc3c(OC)cc(C)[nH]c3=O)nccc12)C1CCNCC1	6.81
CCN(c1cc(-c2ccc(CN3CCN(C)CC3)cc2)cc2c(NCc3c(C)cc(C)[nH]c3=O)nccc12)[C@H]1CC[C@H](N(C)C)CC1	6.21
CCN(c1cc(Cl)cc2c(NCc3c(C)cc(C)[nH]c3=O)nccc12)[C@H]1CC[C@@H](N(C)C)CC1	6.33
CCN(c1cc(-c2ccc(CN3CCN(C)CC3)nc2)cc2c(NCc3c(C)cc(C)[nH]c3=O)nccc12)C1CCC(F)(F)CC1	6.01
CCN(c1cc(-c2ccc(N3CCN(C)CC3)nc2)cc2c(NCc3c(C)cc(C)[nH]c3=O)nccc12)C1CCN(C2CC2)CC1	6.10
CCN(c1cc(-c2cnc(CN3CCOCC3)c(F)c2)cc2c(NCc3c(C)cc(C)[nH]c3=O)nccc12)C1CCOCC1	6.08
